targetSystem: TelJak2 (BaF3 TELJAK cells, TEL/Jak2 fusion) (Homo sapiens)
Construct: The regions encompassing the kinase domain of JAK2 (nucleotides 2994-3914); expressed in transfected cells; host or cells: BaF3 cells bearing the pTET-off plasmid, transfected with pTELJAK2 (pTRE2 vector); the other entry of the earlier key: ETV6 (P41212, Transcription factor ETV6)
Sequence (O60674 with tags, fused parts or gaps): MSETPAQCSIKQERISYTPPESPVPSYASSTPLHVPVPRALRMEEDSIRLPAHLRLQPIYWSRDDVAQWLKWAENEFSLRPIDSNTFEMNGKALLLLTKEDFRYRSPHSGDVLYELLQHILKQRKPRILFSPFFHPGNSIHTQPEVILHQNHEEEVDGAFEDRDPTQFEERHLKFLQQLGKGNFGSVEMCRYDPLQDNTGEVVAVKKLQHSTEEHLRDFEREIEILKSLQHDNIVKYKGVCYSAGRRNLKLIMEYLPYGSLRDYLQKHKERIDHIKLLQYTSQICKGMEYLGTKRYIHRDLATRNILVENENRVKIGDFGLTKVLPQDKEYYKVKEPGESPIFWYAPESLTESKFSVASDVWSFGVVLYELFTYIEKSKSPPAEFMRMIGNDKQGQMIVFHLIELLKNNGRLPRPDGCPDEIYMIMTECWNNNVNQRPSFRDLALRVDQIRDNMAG
protocolText: Cellular growth inhibition assay (MTT), BaF3 TEL:JAK2 cell line
Format: cell-based
conditionInfo: Table 2, 40 hr incubation
Reported inhibition at 20 µM values for a set of molecules

- molecule: "COc1cc(-c2cncc(NC(C)c3ccc(-c4cccnc4)cc3)n2)ccc1O (centres unmarked)"
  targetSystem: "TelJak2 (BaF3 TELJAK cells, TEL/Jak2 fusion) (Homo sapiens)"
  inhibition at 20 µM: "> 50%"

Q: Form field: reported inhibition at 20 µM of COc1cc(-c2cncc(NC(C)c3cccc(NC(=O)[C@H]4CCCN4)c3)n2)ccc1O (some centres unmarked)
Result: > 50%

Q: Form field: reported inhibition at 20 µM of COc1cc(-c2cncc(NC(C)c3cccc(NC(=O)c4cccnc4)c3)n2)ccc1O (centres unmarked) [drawing 127]
Result: > 50%

Q: Form field: reported inhibition at 20 µM of `CC[C@H](Nc1cncc(-c2ccc(O)c(OC)c2)n1)c1ccccc1`
Result: > 50%

Q: Form field: reported inhibition at 20 µM of `COc1cc(-c2cncc(N[C@@H](C)c3ccccc3)n2)ccc1O`
Result: > 50%
